Target: ZntR (Salmonella enterica sv. Typhimurium …, UniProt A0A0H3NSQ7 1-141)
Assay: fluorescence anisotropy; Zn(II)-ZntR, 1.2 eq ZnCl2; 10 nM probe, 60 mM NaCl, 240 mM KCl, 10 mM HEPES pH 7.0, anaerobic; temperature not stated
Details: protein: recombinant; chain copies: 2; label: 5' HEX on strand 1; blunt
value kind: pKd
Lab note — pKd values are minus log10 of concentrations in M.

Enquiry: Specify pKd for zntAPro (dsDNA) DNA 1: CTTGACTCTGGAGTCGACTCCAGAGTGTATCCTC DNA 2: GAGGATACACTCTGGAGTCGACTCCAGAGTCAAG and stop.
Return: 6.19
